Source listed as ChEMBL document CHEMBL2448809.

Measured Ratio of individual entries
Tested on: Plasmodium falciparum
Assay Overview: MMV: Compounds (1uM) were screened in a 72hr growth assay monitored by flow cytometry both in the presence and absence of supplemental isopentenyl pyrophosphate (IPP) 200uM. Compounds which fail to show anti-malarial activity when chemically rescued by IPP are therefore specific to the apicoplast. The values are expressed as the ratio of the corresponding activity with and without IPP, respectively.
Format: functional, W2
Observation Type: Ratio

>>> value_observed("OCCNc1nc(Nc2ccc(Cl)c(Cl)c2)nc2ccccc12")
1.062
>>> value_observed("O=C(NC1CCN(Cc2ccccc2)CC1)c1cc(-c2ccncc2)nc2ccc(Cl)cc12")
0.7749
>>> value_observed("Cn1c(=O)c2cc(C(=O)NCCCN3CCCCCC3)sc2c2ccccc21")
1.205
>>> value_observed("CN(C)c1ccc(-c2nc3cc(N)ccc3[nH]2)cc1")
1.036
>>> value_observed("OC1=C2C(=Nc3ccccc3SC2c2ccccc2)c2ccccc21 (stereo unspecified)")
1.213
>>> value_observed("COc1ccc(C2C(C(=O)Nc3cccc(OC)c3)c3ccccc3C(=O)N2C2CCCCC2)cc1 (stereo unspecified)")
0.7969
>>> value_observed("COc1ccccc1CNC(=O)C1c2ccccc2C(=O)N(CC(C)C)C1c1cccs1 (stereo unspecified)")
1.038
>>> value_observed("COc1ccc2nc(C)cc(Nc3cccc(O)c3)c2c1.Cl")
1.191
>>> value_observed("COc1ccc(C2Sc3ccccc3N=C3C2=C(O)c2ccccc23)cc1 (stereo unspecified)")
1.228
>>> value_observed("Cc1cc(C=C2SC(=Nc3ccccc3)N(C3CCCC3)C2=O)c(C)n1-c1ccc(Cl)cc1")
1.038
>>> value_observed("CCN(CC)c1ccc(NC(=O)c2cccs2)cc1")
1

====

System: Plasmodium falciparum
Assay Overview: MMV: Compounds (1uM) were screened in a 72hr growth assay monitored by flow cytometry both in the presence and absence of supplemental isopentenyl pyrophosphate (IPP) 200uM. Compounds which fail to show anti-malarial activity when chemically rescued by IPP are therefore specific to the apicoplast. The values are expressed as the ratio of the corresponding activity with and without IPP, respectively.
Assay type: functional, W2
Observation Type: Ratio

>>> value_observed("Oc1c(C(Nc2ccccn2)c2cccc(Oc3ccccc3)c2)ccc2cccnc12 (stereo unspecified)")
0.7317
>>> value_observed("COc1cc(OC)cc(N2C(=O)N(Cc3ccc(C(C)(C)C)cc3)c3ccccc3S2(=O)=O)c1")
0.9143
>>> value_observed("Cl.Oc1ccccc1CNCC12CC3CC(CC(C3)C1)C2")
0.8
>>> value_observed("C=CC12CCN(CC1)C(C(O)c1ccnc3ccc(OC)cc13)C2.Cl (stereo unspecified)")
0.6933
>>> value_observed("Cc1ccc(-c2cc3nc4c(c(O)n3n2)CCCC4)cc1")
0.9459
>>> value_observed("CN(C)c1ccc(N=Cc2ccc(N3CCOCC3)cc2)cc1")
0.9558
>>> value_observed("Cc1cc(Nc2cccc(F)c2)nc(NCc2ccccc2)n1")
0.8333
>>> value_observed("COc1cccc(C=Cc2nc(=O)c3ccccc3o2)c1OC")
0.4632
>>> value_observed("CCOC(=O)c1cnc2c(C)cc(C)cc2c1Nc1ccc(OC)c(OC)c1")
1.122
>>> value_observed("COc1cccc(C(=O)Nc2ccc(-c3nc4ccccc4[nH]3)cc2)c1")
0.7651
>>> value_observed("CN(C)c1ccc(C=Cc2nc(=O)c3ccccc3o2)cc1")
0.8302

====

Measured Ratio of individual entries
Tested on: Plasmodium falciparum
Assay Overview: MMV: Compounds (1uM) were screened in a 72hr growth assay monitored by flow cytometry both in the presence and absence of supplemental isopentenyl pyrophosphate (IPP) 200uM. Compounds which fail to show anti-malarial activity when chemically rescued by IPP are therefore specific to the apicoplast. The values are expressed as the ratio of the corresponding activity with and without IPP, respectively.
Assay type: functional, W2
Observation Type: Ratio

>>> value_observed("COc1ccc(Br)cc1C1Nc2ccc3ccccc3c2C2=C1C(=O)CC(c1ccccc1)C2 (stereo not given)")
0.8077
>>> value_observed("CC1(c2ccccc2)Nc2ccccc2-c2nc3ccccc3n21 (stereo not given)")
1.062
>>> value_observed("O=C(NC1CCN(Cc2ccccc2)CC1)c1cc2nc(-c3ccc(Cl)s3)cc(C(F)(F)F)n2n1")
0.6993
>>> value_observed("COc1cccc(C(=O)NC(c2ccc(C)cc2)c2cc(Cl)c3cccnc3c2O)c1 (stereo not given)")
1.1
>>> value_observed("CCOC(=O)c1c(C)n(-c2ccccc2)c2ccc(OC(=O)c3cc(OC)c(OC)c(OC)c3)cc12")
0.9

====

Measured Ratio of individual entries
Test system: Plasmodium falciparum
Assay Overview: MMV: Compounds (1uM) were screened in a 72hr growth assay monitored by flow cytometry both in the presence and absence of supplemental isopentenyl pyrophosphate (IPP) 200uM. Compounds which fail to show anti-malarial activity when chemically rescued by IPP are therefore specific to the apicoplast. The values are expressed as the ratio of the corresponding activity with and without IPP, respectively.
Format: functional, W2
Observation Type: Ratio

>>> value_observed("O=C(CCc1ccccc1)c1ccccc1OCC(O)CN1CCCCC1 (stereo unspecified)")
1
>>> value_observed("COc1ccc(CNC(=O)c2cc3c(=O)n4ccccc4nc3n(CCc3ccccc3)c2=N)cc1")
0.8046
>>> value_observed("CCOC(=O)c1cnc2ccc(CC)cc2c1O")
1
>>> value_observed("O=C(Nc1ccc(Cl)cc1C(=O)Nc1ccncc1)c1ccc(Cl)cc1Cl")
0.7485
>>> value_observed("Cc1sc(NC(=O)c2ccccc2)c(C(c2cccs2)N2CCN(c3ccccc3)CC2)c1C (stereo unspecified)")
0.9412
>>> value_observed("O=C(NCc1ccco1)C1CCN(S(=O)(=O)c2ccc(Cl)cc2)CC1")
0.8889

====

Test system: Plasmodium falciparum
Assay Overview: MMV: Compounds (1uM) were screened in a 72hr growth assay monitored by flow cytometry both in the presence and absence of supplemental isopentenyl pyrophosphate (IPP) 200uM. Compounds which fail to show anti-malarial activity when chemically rescued by IPP are therefore specific to the apicoplast. The values are expressed as the ratio of the corresponding activity with and without IPP, respectively.
Format: functional, W2
Measured Ratio of individual entries
Observation Type: Ratio

>>> value_observed("COc1cccc(NC(=O)Cn2c(C)c(C#N)c3ccccc32)c1")
1.098
>>> value_observed("CC1CCCCN1CCCNC(=O)c1ccc2c(c1)sc1nc(-c3ccc(F)cc3)cn12 (centres undefined)")
1.167
>>> value_observed("CC1CC2=C(CC1CNCCCN(C)C)C(C)(C)CCC2 (centres undefined)")
0.931
>>> value_observed("Cc1cc(N2CCN(C3CCCC3)CC2)n2c(nc3ccccc32)c1C#N")
0.7364
>>> value_observed("Nc1ccc(-c2nc3cc(Oc4ccc(Oc5ccc6[nH]c(-c7ccc(N)cc7)nc6c5)cc4)ccc3[nH]2)cc1")
1.143
>>> value_observed("COc1ccc(CCNC(=O)c2cc(S(=O)(=O)N3CC(C)CC(C)C3)ccc2Sc2ccc(F)cc2)cc1OC (centres undefined)")
1.061
>>> value_observed("CCCCCCC(O)(c1ccc(F)cc1)C(CN1CCOCC1)c1ccccc1.Cl (centres undefined)")
0.9077
>>> value_observed("COc1cc2c3cc1Oc1c(OC)c(OC)cc4c1C(Cc1ccc(O)c(c1)Oc1ccc(cc1)CC3N(C)CC2)N(C)CC4.Cl (centres undefined)")
0.95
>>> value_observed("CCCn1c(=N)c(C(=O)NC2CCCCC2)cc2c(=O)n3cccc(C)c3nc21")
0.8

====

System: Plasmodium falciparum
Assay Overview: MMV: Compounds (1uM) were screened in a 72hr growth assay monitored by flow cytometry both in the presence and absence of supplemental isopentenyl pyrophosphate (IPP) 200uM. Compounds which fail to show anti-malarial activity when chemically rescued by IPP are therefore specific to the apicoplast. The values are expressed as the ratio of the corresponding activity with and without IPP, respectively.
Format: functional, W2
Observation Type: Ratio

>>> value_observed("COc1ccc(-c2c(C)nn3c(N)c(C#N)cnc23)cc1OC")
0.831
>>> value_observed("COc1ccc2c(c1)OC(O)(C(F)(F)C(F)(F)F)CC2=O (stereo not drawn)")
0.9
>>> value_observed("O=C(Nc1ccsc1C(=O)NC1CCCCC1)c1ccc(F)cc1")
0.9369
>>> value_observed("Cc1ccc(-c2cc3c(nn2)-c2ccccc2C3=O)cc1")
0.7253
>>> value_observed("Cl.OC(CNCc1ccccc1)Cn1c2ccccc2c2ccccc21 (stereo not drawn)")
0.9403
>>> value_observed("CN1CCN(c2c3c(c(C#N)c4nc5ccccc5n24)CCC3)CC1")
1.032
>>> value_observed("CCOc1ccc(-c2nc(NC(=O)c3cccc(S(C)(=O)=O)c3)sc2C)cc1")
0.4367
>>> value_observed("COc1ccc2c(c1)C1(Nc3ccccc3-c3nc4ccccc4n31)C(=O)N2 (stereo not drawn)")
0.9667
>>> value_observed("Cc1cccc(-n2ncc3c(O)nc(-n4nc(C)cc4NC(=O)c4cc5ccccc5o4)nc32)c1")
0.6055
>>> value_observed("Cc1cc(NC(=O)c2cccc(C(F)(F)F)c2)n(-c2nc(-c3ccc4c(c3)OCO4)cs2)n1")
0.8908
>>> value_observed("Cc1ccc(F)cc1NC(=O)c1cc(Cl)ccc1Nc1ccccc1")
1.055
>>> value_observed("CSc1ccccc1C(=O)Nc1nc(-c2ccccn2)cs1")
0.8125
>>> value_observed("Cc1cc(Nc2ccc(C)c(Cl)c2)n2nc(C(F)(F)F)nc2n1")
0.6628
>>> value_observed("C=CCc1c(C)nc2ccccc2c1O")
0.9595
>>> value_observed("COc1ccccc1N1C(=N)SC(=Cc2ccc(OCc3ccccc3F)cc2)C1=O")
1.033
>>> value_observed("CCOc1ccc2nc(C)cc(Nc3ccc(Br)cc3)c2c1")
1.038
>>> value_observed("CCCCOc1ccc(C(=O)Nc2cc(C)on2)cc1")
0.9875
>>> value_observed("CCOc1cc(Br)c(C(C)NC(=O)c2cccc(OC)c2)cc1OCC (stereo not drawn)")
0.791
>>> value_observed("CC(C)(C)c1ccc(O)c(CNC2CCCCC2)c1")
0.8356
>>> value_observed("Cc1ccc(-c2cc(C(=O)Nc3ccc(S(=O)(=O)N4CCCCC4)cc3)[nH]n2)c(O)c1")
0.875
>>> value_observed("CCn1c(SCC(=O)Nc2cc(C(F)(F)F)ccc2Cl)nc2ccccc2c1=O")
1
>>> value_observed("CCOc1c(Cl)cc(CNC(C)C(O)c2ccccc2)cc1OC (stereo not drawn)")
1.031
>>> value_observed("COc1ccc2nc(C)cc(Nc3ccc(Cl)cc3)c2c1")
0.8189
